experiment: Time dependent inhibition of CYP450 (unknown origin); format: ADME; settings: human
property-label: inhibition (INH)

The cases that follow already have their inhibition (INH) on record.
CCC1(C)NC(=O)c2cc(S(=O)(=O)Nc3ccc(OC)cc3)ccc2NC1=O (racemic) : Not Active
CCC1(C)C(=O)Nc2ccc(S(=O)(=O)Nc3ccc(F)cc3F)cc2C(=O)N1C (racemic) : Not Active
CC[C@]1(C)NC(=O)c2cc(S(=O)(=O)Nc3ccc(C(F)(F)F)cc3)ccc2NC1=O : Not Active
CCC1(C)NC(=O)c2cc(S(=O)(=O)Nc3ccccc3)ccc2NC1=O (racemic) : Not Active

Now take the following molecule into account.
Need inhibition (INH), item "CC[C@]1(C)NC(=O)c2cc(S(=O)(=O)Nc3ccc(OC(F)F)cc3)ccc2NC1=O"
Not Active

* * *

test: Lipophilicity, log D of the compound at pH 7.4; format: physicochemical; conditions: buffer
property-label: logD
One number for each entry.

The cases that follow already have their logD on record.
CC1(C)NC(=O)c2cc(S(=O)(=O)Nc3ccccc3)ccc2NC1=O : 1.6
CCC1(C)NC(=O)c2cc(S(=O)(=O)Nc3ccc(Cl)cc3)ccc2NC1=O (racemic) : 2.9

Now take the following compound into account.
Need logD, item CCC1(C)NC(=O)c2cc(S(=O)(=O)NCc3ccccc3)ccc2NC1=O (racemic)
1.8
